Exercise: for every item that follows, state its recorded Kd.
- TESTED_SYSTEM: T1, His::emerin 1–125 (Ce-emerin residues 1–125, nucleoplasmic domain only) (C. elegans, UniProt O01971 1-125)
- T1 sequence (looked up): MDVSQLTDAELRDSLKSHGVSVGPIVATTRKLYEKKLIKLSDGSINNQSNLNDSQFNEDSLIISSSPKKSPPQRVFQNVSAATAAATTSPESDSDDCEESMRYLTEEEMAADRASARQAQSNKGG
- ASSAY: SPR
Answers are plain numbers, in nM.

Some entries whose results are on file:
>  <BINDER>
MBP::BAF-1 S4A (natural protein, C. elegans, UniProt Q03565 1-89, looked up) MSTAVKHREFVGEPMGDKEVTCIAGIGPTYGTKLTDAGFDKAYVLFGQYLLLKKDEDLFIEWLKETAGVTANHAKTAFNCLNEWADQFM

>  <ENDPOINT_UNIT>
nM

>  <ASSAY_RESULT>
20

$$$$
>  <BINDER>
MBP::BAF-1 F46E (natural protein, C. elegans, UniProt Q03565 1-89, looked up) MSTSVKHREFVGEPMGDKEVTCIAGIGPTYGTKLTDAGFDKAYVLEGQYLLLKKDEDLFIEWLKETAGVTANHAKTAFNCLNEWADQFM

>  <ENDPOINT_UNIT>
nM

>  <ASSAY_RESULT>
5.6

$$$$
>  <BINDER>
MBP::BAF-1 (wild-type C. elegans barrier to autointegration factor 1 fused to maltose-binding protein) (natural protein, UniProt Q03565 1-89, looked up) MSTSVKHREFVGEPMGDKEVTCIAGIGPTYGTKLTDAGFDKAYVLFGQYLLLKKDEDLFIEWLKETAGVTANHAKTAFNCLNEWADQFM

>  <ENDPOINT_UNIT>
nM

>  <ASSAY_RESULT>
57

$$$$

Documented Kd of MBP::BAF-1 K6A (natural protein, C. elegans, UniProt Q03565 1-89, looked up) MSTSVAHREFVGEPMGDKEVTCIAGIGPTYGTKLTDAGFDKAYVLFGQYLLLKKDEDLFIEWLKETAGVTANHAKTAFNCLNEWADQFM : 31

Numbers sourced from paper PMC3967975.
